This listing pairs molecules with measured IC50.
System: E6SM
ASSAY METHOD TEXT: Concentration required to reduce herpes simplex virus-2(Lyons) inducted cytopathicity by 50% (E6SM cells)
Format: functional, cell-based
CONDITION SET: Homo sapiens

Specify measured IC50 for O=C(O)CCSCCCOC[C@H]1O[C@@](COCCCSCCC(=O)O)(O[C@H]2O[C@H](COCCCSCCC(=O)O)[C@@H](OCCCSCCC(=O)O)[C@H](OCCCSCCC(=O)O)[C@H]2OCCCSCCC(=O)O)[C@@H](OCCCSCCC(=O)O)[C@@H]1OCCCSCCC(=O)O . > 119 µM

Specify measured IC50 for O=C(O)CC(SCCCOC[C@H]1O[C@@](COCCCSC(CC(=O)O)C(=O)O)(O[C@H]2O[C@H](COCCCSC(CC(=O)O)C(=O)O)[C@@H](OCCCSC(CC(=O)O)C(=O)O)[C@H](OCCCSC(CC(=O)O)C(=O)O)[C@H]2OCCCSC(CC(=O)O)C(=O)O)[C@@H](OCCCSC(CC(=O)O)C(=O)O)[C@@H]1OCCCSC(CC(=O)O)C(=O)O)C(=O)O (stereo not given in full) . > 135 µM

Specify measured IC50 for O=S(=O)(O)CCSCCCOC[C@H]1O[C@@H](OCCCSCCS(=O)(=O)O)[C@H](OCCCSCCS(=O)(=O)O)[C@@H](OCCCSCCS(=O)(=O)O)[C@@H]1OCCCSCCS(=O)(=O)O . > 42 µM

Specify measured IC50 for O=S(=O)(O)CCSCCCOC[C@H]1O[C@@](COCCCSCCS(=O)(=O)O)(O[C@H]2O[C@H](COCCCSCCS(=O)(=O)O)[C@@H](OCCCSCCS(=O)(=O)O)[C@H](OCCCSCCS(=O)(=O)O)[C@H]2OCCCSCCS(=O)(=O)O)[C@@H](OCCCSCCS(=O)(=O)O)[C@@H]1OCCCSCCS(=O)(=O)O . > 101 µM

Specify measured IC50 for O=C(O)CC(SCCCOC[C@H]1O[C@@H](OCCCSC(CC(=O)O)C(=O)O)[C@H](OCCCSC(CC(=O)O)C(=O)O)[C@@H](OCCCSC(CC(=O)O)C(=O)O)[C@@H]1OCCCSC(CC(=O)O)C(=O)O)C(=O)O (stereo not given in full) . > 296 µM

====

This listing pairs compounds with measured IC50.
System: Vero
ASSAY METHOD TEXT: Concentration required to reduce reovirus-1 inducted cytopathicity by 50% (Vero cells)
Assay type: functional, cell-based
CONDITION SET: Chlorocebus sabaeus

Take a look at these entries with their results.
COMPOUND | IC50
O=S(=O)(O)CCSCCCOC[C@H]1O[C@@](COCCCSCCS(=O)(=O)O)(O[C@H]2O[C@H](COCCCSCCS(=O)(=O)O)[C@@H](OCCCSCCS(=O)(=O)O)[C@H](OCCCSCCS(=O)(=O)O)[C@H]2OCCCSCCS(=O)(=O)O)[C@@H](OCCCSCCS(=O)(=O)O)[C@@H]1OCCCSCCS(=O)(=O)O | > 101 µM
O=C(O)CCSCCCOC[C@H]1O[C@@](COCCCSCCC(=O)O)(O[C@H]2O[C@H](COCCCSCCC(=O)O)[C@@H](OCCCSCCC(=O)O)[C@H](OCCCSCCC(=O)O)[C@H]2OCCCSCCC(=O)O)[C@@H](OCCCSCCC(=O)O)[C@@H]1OCCCSCCC(=O)O | > 59 µM
O=S(=O)(O)CCSCCCOC[C@H]1O[C@@H](OCCCSCCS(=O)(=O)O)[C@H](OCCCSCCS(=O)(=O)O)[C@@H](OCCCSCCS(=O)(=O)O)[C@@H]1OCCCSCCS(=O)(=O)O | > 167 µM
O=C(O)CC(SCCCOC[C@H]1O[C@@](COCCCSC(CC(=O)O)C(=O)O)(O[C@H]2O[C@H](COCCCSC(CC(=O)O)C(=O)O)[C@@H](OCCCSC(CC(=O)O)C(=O)O)[C@H](OCCCSC(CC(=O)O)C(=O)O)[C@H]2OCCCSC(CC(=O)O)C(=O)O)[C@@H](OCCCSC(CC(=O)O)C(=O)O)[C@@H]1OCCCSC(CC(=O)O)C(=O)O)C(=O)O (some centres not stated) | > 90 µM
O=C(O)CC(SCCCOC[C@H]1O[C@@H](O[C@H]2[C@H](OCCCSC(CC(=O)O)C(=O)O)[C@@H](OCCCSC(CC(=O)O)C(=O)O)C(OCCCSC(CC(=O)O)C(=O)O)O[C@@H]2COCCCSC(CC(=O)O)C(=O)O)[C@H](OCCCSC(CC(=O)O)C(=O)O)[C@@H](OCCCSC(CC(=O)O)C(=O)O)[C@@H]1OCCCSC(CC(=O)O)C(=O)O)C(=O)O (some centres not stated) | > 181 µM

Specify measured IC50 for O=C(O)CC(SCCCOC[C@H]1O[C@@H](O[C@H]2[C@H](OCCCSC(CC(=O)O)C(=O)O)[C@@H](OCCCSC(CC(=O)O)C(=O)O)[C@@H](OCCCSC(CC(=O)O)C(=O)O)O[C@@H]2COCCCSC(CC(=O)O)C(=O)O)[C@H](OCCCSC(CC(=O)O)C(=O)O)[C@@H](OCCCSC(CC(=O)O)C(=O)O)[C@@H]1OCCCSC(CC(=O)O)C(=O)O)C(=O)O (some centres not stated) . > 181 µM

Specify measured IC50 for O=C(O)CC(SCCCOC[C@H]1O[C@@H](OCCCSC(CC(=O)O)C(=O)O)[C@H](OCCCSC(CC(=O)O)C(=O)O)[C@@H](OCCCSC(CC(=O)O)C(=O)O)[C@@H]1OCCCSC(CC(=O)O)C(=O)O)C(=O)O (some centres not stated) . > 148 µM

====

Test system: Vero
ASSAY METHOD TEXT: Concentration required to reduce Junin virus-inducted cytopathicity by 50% (Vero cells)
Format: functional, cell-based
CONDITION SET: Chlorocebus sabaeus
This listing pairs molecules with measured IC50.

Take a look at these entries with their results.
MOLECULE | VALUE MEASURED
O=C(O)CCSCCCOC[C@H]1O[C@@](COCCCSCCC(=O)O)(O[C@H]2O[C@H](COCCCSCCC(=O)O)[C@@H](OCCCSCCC(=O)O)[C@H](OCCCSCCC(=O)O)[C@H]2OCCCSCCC(=O)O)[C@@H](OCCCSCCC(=O)O)[C@@H]1OCCCSCCC(=O)O | > 12 µM
O=C(O)CC(SCCCOC[C@H]1O[C@@](COCCCSC(CC(=O)O)C(=O)O)(O[C@H]2O[C@H](COCCCSC(CC(=O)O)C(=O)O)[C@@H](OCCCSC(CC(=O)O)C(=O)O)[C@H](OCCCSC(CC(=O)O)C(=O)O)[C@H]2OCCCSC(CC(=O)O)C(=O)O)[C@@H](OCCCSC(CC(=O)O)C(=O)O)[C@@H]1OCCCSC(CC(=O)O)C(=O)O)C(=O)O (stereo partly drawn) | > 22 µM

Attention now shifts to the item below.
Write down measured IC50 (Vero) for this molecule. O=S(=O)(O)CCSCCCOC[C@H]1O[C@@H](OCCCSCCS(=O)(=O)O)[C@H](OCCCSCCS(=O)(=O)O)[C@@H](OCCCSCCS(=O)(=O)O)[C@@H]1OCCCSCCS(=O)(=O)O > 42 µM

====

This listing pairs compounds with measured CC50.
System: MT4
ASSAY METHOD TEXT: Concentration required to reduce the viability of uninfected MT-4 cells by 50%
Type: functional
CONDITION SET: Homo sapiens

Take a look at these entries with their results.
COMPOUND | CC50
O=S(=O)(O)CCSCCCOC[C@H]1O[C@@](COCCCSCCS(=O)(=O)O)(O[C@H]2O[C@H](COCCCSCCS(=O)(=O)O)[C@@H](OCCCSCCS(=O)(=O)O)[C@H](OCCCSCCS(=O)(=O)O)[C@H]2OCCCSCCS(=O)(=O)O)[C@@H](OCCCSCCS(=O)(=O)O)[C@@H]1OCCCSCCS(=O)(=O)O | > 127 µM
O=C(O)CCSCCCOC[C@H]1O[C@@](COCCCSCCC(=O)O)(O[C@H]2O[C@H](COCCCSCCC(=O)O)[C@@H](OCCCSCCC(=O)O)[C@H](OCCCSCCC(=O)O)[C@H]2OCCCSCCC(=O)O)[C@@H](OCCCSCCC(=O)O)[C@@H]1OCCCSCCC(=O)O | > 148 µM
O=C(O)CC(SCCCOC[C@H]1O[C@@H](O[C@H]2[C@H](OCCCSC(CC(=O)O)C(=O)O)[C@@H](OCCCSC(CC(=O)O)C(=O)O)C(OCCCSC(CC(=O)O)C(=O)O)O[C@@H]2COCCCSC(CC(=O)O)C(=O)O)[C@H](OCCCSC(CC(=O)O)C(=O)O)[C@@H](OCCCSC(CC(=O)O)C(=O)O)[C@@H]1OCCCSC(CC(=O)O)C(=O)O)C(=O)O (some centres not stated) | > 56.4 µM
O=S(=O)(O)CCSCCCOC[C@H]1O[C@@H](OCCCSCCS(=O)(=O)O)[C@H](OCCCSCCS(=O)(=O)O)[C@@H](OCCCSCCS(=O)(=O)O)[C@@H]1OCCCSCCS(=O)(=O)O | > 208 µM
O=C(O)CC(SCCCOC[C@H]1O[C@@](COCCCSC(CC(=O)O)C(=O)O)(O[C@H]2O[C@H](COCCCSC(CC(=O)O)C(=O)O)[C@@H](OCCCSC(CC(=O)O)C(=O)O)[C@H](OCCCSC(CC(=O)O)C(=O)O)[C@H]2OCCCSC(CC(=O)O)C(=O)O)[C@@H](OCCCSC(CC(=O)O)C(=O)O)[C@@H]1OCCCSC(CC(=O)O)C(=O)O)C(=O)O (some centres not stated) | > 113 µM

Specify measured CC50 for O=C(O)CC(SCCCOC[C@H]1O[C@@H](OCCCSC(CC(=O)O)C(=O)O)[C@H](OCCCSC(CC(=O)O)C(=O)O)[C@@H](OCCCSC(CC(=O)O)C(=O)O)[C@@H]1OCCCSC(CC(=O)O)C(=O)O)C(=O)O (some centres not stated) . > 185 µM

Specify measured CC50 for O=C(O)CC(SCCCOC[C@H]1O[C@@H](O[C@H]2[C@H](OCCCSC(CC(=O)O)C(=O)O)[C@@H](OCCCSC(CC(=O)O)C(=O)O)[C@@H](OCCCSC(CC(=O)O)C(=O)O)O[C@@H]2COCCCSC(CC(=O)O)C(=O)O)[C@H](OCCCSC(CC(=O)O)C(=O)O)[C@@H](OCCCSC(CC(=O)O)C(=O)O)[C@@H]1OCCCSC(CC(=O)O)C(=O)O)C(=O)O (some centres not stated) . > 56.4 µM

Hello, the source for this data is ChEMBL document CHEMBL1130336, in case you need it.
